# target.desc: C-terminal-binding protein 1 (Homo sapiens) (UniProt Q13363)
# method.summary: qHTS for Inhibitors of the Phosphatase Activity of Eya2: Carboxyl-terminal binding protein (CtBP) Counterscreen for Cherry-picked Compounds; note: nearly all actives have a fitted effect of over 65% in size; note: potency is the fitted concentration of half-maximal effect
# condition.notes: purified protein-protein binding, AlphaScreen, 3 h; series mostly up to 46.1 µM
In all, about 1,300 compounds went through this assay and about 420 (32%) were called active. Inconclusive results (about 32%) are left out. Some of the results follow.
measured.endpoint: Potency

Asked: Given the entry `COc1cc2[nH]cc(C(=O)NCc3ccccc3)c(=O)c2cc1OC` , report its measured Potency.
Given back: 3.79 µM (active)

Asked: Value lookup for Potency; key = COc1ccc(C2NC(C(=O)O)Cc3c2[nH]c2ccccc32)cc1CN1CCN(c2ccc(F)cc2)CC1 (configuration not stated)
Given back: inactive

Asked: Give its Potency value. Item: `CCOC(=O)Cc1nnc(NC(=O)CSc2nnc3c(n2)[nH]c2ccccc23)s1`
Given back: 15.1 µM (active)

Asked: # lookup: Potency of `COC(=O)c1ccc(CSc2ccc3nnc(-c4ccccn4)n3n2)o1`
Given back: 7.57 µM (active)

Asked: Which Potency reading was recorded for the compound `COc1ccc(S(=O)(=O)N2CCCCC2)cc1NC(=O)c1[nH]c(C)c(C(C)=O)c1C` ?
Given back: inactive

Asked: Would you kindly share the measured Potency for `O=c1[nH]c(/C=C\c2ccc(O)cc2)nc(O)c1[N+](=O)[O-]` ?
Given back: inactive

***
Asked: Reported Potency for `Clc1cccc(-c2ccc(CNCc3ccccn3)o2)c1` : what is it?
Given back: 16.9 µM (active)

Asked: What Potency value was documented for this compound, `Cc1ccc(Nc2nc(N)nc(CSc3nnc(C)s3)n2)cc1` ?
Given back: inactive

Asked: # input compound: `O=C(CSc1nnc2c(n1)[nH]c1ccccc12)Nc1ccc(S(=O)(=O)Nc2ncccn2)cc1` ; wanted: its Potency
Given back: 5.36 µM (active)

Asked: Data request, read-out Potency, for `CN(C)c1ccc(N=c2sc3ccccc3n2C)cc1`
Given back: 7.57 µM (active)

Asked: Which Potency is reported for this compound? `COC(=O)c1ccc(NC(=O)CSc2nc(=O)n3cccc(C)c3n2)cc1`
Given back: 13.5 µM (active)

Asked: Suppose we examine the compound `COc1ccc2nc(NC(=S)NC(=O)c3ccco3)sc2c1` ; what Potency value has been reported?
Given back: inactive

----------
# target.desc: C-terminal-binding protein 1 (Homo sapiens) (UniProt Q13363)
# method.summary: qHTS for Inhibitors of the Phosphatase Activity of Eya2: Carboxyl-terminal binding protein (CtBP) Counterscreen for Cherry-picked Compounds; note: nearly all actives have a fitted effect of over 65% in size
# condition.notes: purified protein-protein binding, AlphaScreen, 3 h; series mostly up to 46.1 µM
About 420 (32%) of roughly 1,300 compounds were called active. About 32% were inconclusive and are not listed. Calls come from the whole dose curve; as a rule, active = well fitted inhibition curve with a large enough effect; inconclusive = small, poorly fitted or top-dose-only effect; inactive = no such curve, though single readings can be large or run the other way. The list shows a part of the results.
Response enum: active, inactive

The following compounds have reported results that may help.
Asked: How was `COc1ccc(N(CC(=O)N2CCCCC2)S(=O)(=O)c2c(C)nn(C)c2C)cc1` classified in this test?
Given back: inactive

Asked: # lookup: test call for CC1C(c2ccccc2)=Nn2c(=O)n(-c3ccccc3)c(=O)n21 (centres undefined)
Given back: inactive

Asked: In this assay, the call recorded for `CCOc1ccc(CCN2C(=O)C(=O)N([C@@H](Cc3ccccc3)CN3CCC[C@H]3CN3C(=O)C(=O)NC[C@@H]3Cc3ccccc3)C[C@@H]2Cc2ccccc2)cc1` was what?
Given back: inactive

Kindly consider the entry below.
Asked: Called result for O=C(CSc1nnc2c(Cl)cc(Cl)cn12)NC1CCS(=O)(=O)C1 (centres undefined)
Given back: inactive
